- Test system: 287954-098-R-J1 tumor spheroid viability;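 note: luminescent signal taken as surrogate of viable cell content; spheroids exposed to compound for 7 days before viability readout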
- Assay Name: Anticancer human tumor 287954-098-R-J1 patient-derived Ewing sarcoma cell line growth inhibition; active = viability on the fitted dose curve at most 10% of control; inactive = the rest
- Run Conditions: second compound 100 µM; first compound 3.16 µM; spheroids with HUVEC and MSC
Please reply with one of these outcomes: TRUE = active, FALSE = inactive

Some solved entries appear below for comparison.
Molecule | Label Value
CC1COCCN1c1cc(-c2ccnn2C)c2ccnc(-c3ccn[nH]3)c2n1 (stereo unspecified) + Cn1nnc2c(C(N)=O)ncn2c1=O | TRUE
CC(C)n1c(=O)n(C)c2cnc3cc(F)c(-c4ccc(OCCCN5CCCCC5)nc4)cc3c21 + Cn1nnc2c(C(N)=O)ncn2c1=O | FALSE
COc1cc(C)[nH]c(=O)c1CN1CCc2c(Cl)cc(C(OC)C3COC3)c(Cl)c2C1=O (stereo unspecified) + Cn1nnc2c(C(N)=O)ncn2c1=O | FALSE
Cc1cc(C)c(CNC(=O)c2cc(-c3ccc(CN4CCOCC4)cc3)cc3c2cnn3C2CCCC2)c(=O)[nH]1 + Cn1nnc2c(C(N)=O)ncn2c1=O | FALSE
[2H]c1nc(C)nc([2H])c1-c1cc(NC[C@@H](C)c2cccc3c(C(=O)NC)ccnc23)ncn1 + Cn1nnc2c(C(N)=O)ncn2c1=O | FALSE

Then there is this molecule:
Tell me the recorded outcome of this test for COc1ccc([C@@H](O)c2cc(-c3ncnc4cc(N5CCOCC5)ccc34)c(F)cc2Cl)nn1 + Cn1nnc2c(C(N)=O)ncn2c1=O .
FALSE
